System: Drosophila larvae expressing A315T TDP-43 in motor neurons
Test: Drug screen: rescue of lethality caused by A315T TDP-43 expression in motor neurons (D42 Gal4)
Type: in vivo
Conditions: transgene A315T; 50 μM in fly food
Counter-ions that a name gives are not always drawn.
observedProperty: Preliminary rescue result: adults with normal wings (Adult Normal Wings Adults)

compound	recordedValue
CN1CCCN(C(c2ccccc2)c2ccc(Cl)cc2)CC1 (centres unmarked)	1
CCCCNc1ccc(C(=O)OCCN(C)C)cc1 [Tetracaine Hydrochloride]	2
CCCC(C)C1(CC)C(=O)NC(=O)NC1=O (centres unmarked)	3
CC[C@@H](C(N)=O)N1CCCC1=O	3
